# growth inhibition annotations
experimentalDetails: NCI Yeast Anticancer Drug Screen. Data for the cln2 rad14 strain (AID 165);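 also: 0% = growth equal to vehicle treated cultures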
conditionsUsed: S. cerevisiae cln2 rad14 strain, at 5.0 µM (retest, dose inferred, filed as 0.5), stronger effect = higher value
Compounds without any hit were thinned out: in the full panel of roughly 79,000, 15% have a hit. Calls of active or inactive are those of the source. Rule as the data show it: active = growth inhibition above about 70%; inactive = the rest.
assayReadout: growth inhibition

| compound | assayReadout | obsValue |
| --- | --- | --- |
| COc1cc(C=O)c(Cl)cc1O | growth inhibition | -4% (inactive) |
| O=Cc1ccc(O)cc1O | growth inhibition | 4% (inactive) |
| Clc1c2ccccc2cc2cccnc12 | growth inhibition | 3% (inactive) |
| CC1(CO)CCCC2(C)C1CCC1CC3C=CC12C1C(=O)OC(=O)C31 (centres undefined) | growth inhibition | 30% (inactive) |
| COC(=O)CCCCCOS(=O)(=O)c1ccc(C)cc1 | growth inhibition | -3% (inactive) |
| O=C(/C=C/c1cccnc1)c1cc(Cl)ccc1O | growth inhibition | 1% (inactive) |
| N/C(CC(=O)NOC(=O)c1ccccc1)=N/OC(=O)c1ccccc1 | growth inhibition | 6% (inactive) |
| CC(C)CCOc1ccc(/C=C\C(=O)O)cc1 | growth inhibition | -1% (inactive) |
| CC(C)C1=CC[C@H]2C(=C1)CC[C@@H]1[C@]2(C)CCC[C@@]1(C)C(=O)O | growth inhibition | -9% (inactive) |
| C=C1CC(c2ccc(OCCCN3C(=O)c4ccccc4C3=O)cc2)OC1=O (centres undefined) | growth inhibition | 23% (inactive) |
| CCOC1NC(=S)N(C2CCCCC2)C1(C)C (centres undefined) | growth inhibition | -2% (inactive) |
| Cc1ccc2c(-c3ccccc3)c3ccccc3cc2c1C | growth inhibition | -4% (inactive) |
| O=C1/C(=C\c2ccc(Cl)cc2)SC2SC=C(c3ccc([N+](=O)[O-])cc3)N12 (centres undefined) | growth inhibition | -20% (inactive) |
| CN(CCC(=O)/C(=C\c1ccc(Cl)cc1)c1ccccc1)Cc1ccccc1 | growth inhibition | 98% (active) |
| [O-]/[N+](O)=C\c1ccccn1 | growth inhibition | -2% (inactive) |
| O=C(O)c1ccc(CSc2ccc(Cl)cc2)cc1 | growth inhibition | -7% (inactive) |
| NC(=O)C1CCCN1C(=O)C1CCCN(Cc2ccc(CN3CCCC(C(=O)N4CCCC4C(N)=O)C3)cc2)C1 (centres undefined) | growth inhibition | -13% (inactive) |
| O=S(=O)(/C=C/c1cccnc1)/C=C/c1cccnc1 | growth inhibition | 3% (inactive) |
| C[C@H]1CC[C@@H]2[C@@H](C)[C@H]3[C@H](C[C@H]4[C@@H]5CC=C6C[C@@H](O)CC[C@]6(C)[C@H]5C[C@H](O)[C@]34C)N2C1 | growth inhibition | 16% (inactive) |
| Cc1cc2nc3ccc(N)cc3oc-2cc1=[N+](C)C | growth inhibition | -12% (inactive) |
| [O-][n+]1c2ccccc2cc2c1c1ccccc1n2O | growth inhibition | 4% (inactive) |
| CC(C)/C=C1\CCC(CN2CCOCC2)C1=O (centres undefined) | growth inhibition | 23% (inactive) |
| CCC(=O)C(CCN(CC)CC)(CCN(CC)CC)c1ccccc1 | growth inhibition | 3% (inactive) |
| CCC[CH2][Ge]([CH2]CCC)([CH2]CCC)[O]C(=O)CC(=O)c1ccccc1 | growth inhibition | 1% (inactive) |
